assay: Cell cytotoxicity 50 assay (CC50), MB200 cells, cell titer glo; assay type: cell-based; settings: human
reported_endpoint: CC50 at 72 h

Worked set:
>  <compound>
Cc1ccc2nc(-c3ccc(NC(=O)C4CCC4)cc3)sc2c1 [Compound 29]

>  <CC50 at 72 h>
1 to 10 µM

$$$$
>  <compound>
CC(=O)OCCCC(=O)Nc1ccc(-c2nc3ccc(C)cc3s2)cc1 [Compound 36]

>  <CC50 at 72 h>
> 10 µM

$$$$

The record that follows has no CC50 at 72 h shown yet.
What does the data say about its CC50 at 72 h? Entry: CC(=O)NCCCNC(=O)[C@H]1CC[C@H](c2nc3ccccc3s2)C1 [Compound 166]
> 10 µM

* * *

Overview of recorded CC50 at 72 h for various compounds
assay: Cell cytotoxicity 50 assay (CC50), HEK cells; assay type: cell-based; details: human

Worked set:
>  <compound>
CCOCCCC(=O)Nc1ccc(-c2nc3ccc(C)cc3s2)cc1

>  <CC50 at 72 h>
1 to 10 µM

$$$$
>  <compound>
O=C(CCN1CCCC1=O)Nc1ccc(C(=O)c2nc3ccccc3s2)cc1

>  <CC50 at 72 h>
> 10 µM

$$$$
>  <compound>
CC(=O)NCCCC(=O)Nc1ccc(-c2ncc(-c3ccccc3)s2)cc1

>  <CC50 at 72 h>
> 10 µM

$$$$
>  <compound>
CC(=O)NCCCC(=O)Nc1ccc(-c2nc(-c3ccccc3)cs2)cc1

>  <CC50 at 72 h>
> 10 µM

$$$$

The record that follows has no CC50 at 72 h shown yet.
What does the data say about its CC50 at 72 h? Entry: O=C(Nc1ccc(-c2nc3ccccc3s2)cc1)C1CCC(N2C(=O)CCC2=O)C1 (centres unmarked)
> 10 µM

* * *

assay: Cell cytotoxicity 50 assay (CC50), MB200 cells, cell titer glo; assay type: cell-based; settings: human
Overview of recorded CC50 at 72 h for various compounds

Worked set:
>  <compound>
CC(=O)NC1CCC(C(=O)N[C@H]2CC[C@@H](c3nc4ccccc4s3)CC2)C1 (some centres unmarked) [Compound 133]

>  <value_observed>
> 10 µM

$$$$
>  <compound>
O=C(CCCCc1cccnc1)Nc1ccc(-c2nc3ccccc3s2)cc1 [Compound 140]

>  <value_observed>
> 10 µM

$$$$
>  <compound>
O=C(CCC1CCC(=O)N1)Nc1ccc(-c2nc3ccccc3s2)cc1 (centres unmarked) [Compound 176]

>  <value_observed>
1 to 10 µM

$$$$
>  <compound>
CC(=O)NCCC(=O)Nc1ccc(-c2nc3cc(C)ccc3s2)cc1 [Compound 53]

>  <value_observed>
> 10 µM

$$$$

The record that follows has no CC50 at 72 h shown yet.
What does the data say about its CC50 at 72 h? Entry: CC(=O)NCCCC(=O)Nc1ccc(-c2nc3ccc(C)cc3s2)cc1 [Compound 15]
> 10 µM

* * *

assay: Cell cytotoxicity 50 assay (CC50), MB200 cells, cell titer glo; format: cell-based; conditions: human
Overview of recorded CC50 at 72 h for various compounds

Worked set:
>  <compound>
CC(=O)NCCCC(=O)NC1CCC(c2nc3ccccc3s2)CC1 (stereo not drawn)

>  <CC50 at 72 h>
> 10 µM

$$$$
>  <compound>
CC(=O)NCCCC(=O)Nc1cc(Cl)cc(-c2nc3ccccc3s2)c1

>  <CC50 at 72 h>
> 10 µM

$$$$
>  <compound>
CC(=O)NCCCC(=O)N[C@H]1CC[C@@H](Cc2nc3ccccc3s2)CC1

>  <CC50 at 72 h>
> 10 µM

$$$$
>  <compound>
CC(=O)NCCCC(=O)Nc1ccc(CCc2nc3ccccc3s2)cc1

>  <CC50 at 72 h>
> 10 µM

$$$$
>  <compound>
O=C(CCCc1cnco1)Nc1ccc(Cc2nc3ccccc3s2)cc1

>  <CC50 at 72 h>
> 10 µM

$$$$

What does the data say about its CC50 at 72 h? Entry: O=C(CCn1ccnn1)Nc1ccc(-c2nc3ccccc3s2)cc1
> 10 µM

What does the data say about its CC50 at 72 h? Entry: N#CCCCC(=O)Nc1ccc(-c2nc3ccccc3s2)cc1
> 10 µM

What does the data say about its CC50 at 72 h? Entry: CC(=O)OCCCC(=O)Nc1ccc(-c2nc3ccccc3s2)cc1
> 10 µM

What does the data say about its CC50 at 72 h? Entry: CC(=O)CCCC(=O)Nc1ccc(-c2nc3ccc(C)cc3s2)cc1
> 10 µM
